System: 323965-272-R-J2-PDC complex spheroid growth, % test/control;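 also: compound exposure lasted 7 days starting three days after spheroid seeding; 100% = DMSO vehicle control wells with viability set relative to vehicle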
MEASUREMENT DESCRIPTION: Anticancer human tumor 323965-272-R-J2-PDC patient-derived pancreatic carcinoma cell line growth inhibition [Asc]
CONDITION INFO: second compound 3 µM; first compound 3.16 µM; active compounds read low
QUANTITY: viability, T/C

COMPOUND	viability, T/C
O=C(c1cc(Cc2n[nH]c(=O)c3ccccc23)ccc1F)N1CCN(C(=O)C2CC2)CC1 + CCN1C(C(=O)NC23CCC(C(=O)O)(CC2)CC3)C(c2cccc(Cl)c2F)C2(C(=O)Nc3cc(Cl)ccc32)C12CCCCC2	92.4%
C#Cc1c(F)ccc2cc(O)cc(-c3ncc4c(N5CC6CCC(C5)N6)nc(OCC56CCCN5CC(F)C6)nc4c3F)c12 (centres undefined) + CCN1C(C(=O)NC23CCC(C(=O)O)(CC2)CC3)C(c2cccc(Cl)c2F)C2(C(=O)Nc3cc(Cl)ccc32)C12CCCCC2	63.1%
C=CC(=O)N1CCN(c2nc(=O)n(-c3c(C)ccnc3C(C)C)c3nc(-c4c(O)cccc4F)c(F)cc23)C(C)C1 (centres undefined) + CCN1C(C(=O)NC23CCC(C(=O)O)(CC2)CC3)C(c2cccc(Cl)c2F)C2(C(=O)Nc3cc(Cl)ccc32)C12CCCCC2	65.8%

Let us move to another entry and its viability, T/C.
Query: viability, T/C; subject: C=C(F)C(=O)N1CCN(c2nc(OCC3CCCN3C)nc3c2CCN(c2cccc4cccc(Cl)c24)C3)CC1CC#N (centres undefined) + CCN1C(C(=O)NC23CCC(C(=O)O)(CC2)CC3)C(c2cccc(Cl)c2F)C2(C(=O)Nc3cc(Cl)ccc32)C12CCCCC2
82.3%
